What minimum gelation concentration was measured for each of the following?
- ASSAY: Gelation test in solvents at room temperature
- Type: physicochemical
- RUN_PARAMETERS: DMSO:H2O (1:2), room temperature
- Description: Gelation tests were performed by adding incremental amounts of compounds to a solvent or solvent system at room temperature and observing the results (i.e., gel formation, solubility of compounds, insolubility of compounds, or formation of a precipitate). […] The term “precipation” means that the compound dissolves upon heating and sonicating, however, it crashes out of solution when the heat is removed. After the compounds were synthesized, they were screened for gelation properties. […]
Kindly format the answer as number then unit.

get_value(item= CCOC(=O)CNC(=O)CN(Cc1ccc(OC)cc1)C(=O)c1ccc(Br)cc1 , readout=minimum gelation concentration) returns 2.0 mg/mL

get_value(item= COc1ccc(CN(CC(=O)NC2CCCCC2)C(=O)c2ccc(Br)cc2)cc1 , readout=minimum gelation concentration) returns 6.6 mg/mL

get_value(item= O=C(CN(Cc1ccccc1)C(=O)c1ccc([N+](=O)[O-])cc1)NC1CCCCC1 , readout=minimum gelation concentration) returns 10.0 mg/mL

get_value(item= O=C(CN(Cc1ccccc1)C(=O)c1ccc(Br)cc1)NC1CCCCC1 , readout=minimum gelation concentration) returns 5.0 mg/mL

get_value(item= CCOC(=O)CNC(=O)CN(Cc1ccc(OC)cc1)C(=O)c1ccccc1 , readout=minimum gelation concentration) returns 20.0 mg/mL

get_value(item= CCOC(=O)CNC(=O)CN(C(=O)c1ccc(Br)cc1)C1C(OC)OC2COC(c3ccccc3)OC2C1O (stereo not shown) , readout=minimum gelation concentration) returns 6.6 mg/mL

get_value(item= C#CCCC(=O)N(CC(=O)NC1CCCCC1)Cc1ccccc1 , readout=minimum gelation concentration) returns 20.0 mg/mL
